Data provenance is ChEMBL document CHEMBL1156604.

Species on record: Homo sapiens
Experiment: Selectivity ratio of Ki for human mu opioid receptor to Ki for human delta opioid receptor
Measurement Kind: Ratio Ki

// query Bench note: what Ratio Ki did O[C@@]12CCCC[C@@]13CCN(CC1CCC1)[C@@H]2Cc1ccc(OCCc2ccccc2)cc13 show?
// result 56

// query Bench note: what Ratio Ki did OCCCOc1ccc2c(c1)[C@@]13CCCC[C@@]1(O)[C@@H](C2)N(CC1CCC1)CC3 show?
// result 57

// query Bench note: what Ratio Ki did O=C(COc1ccccc1)Oc1ccc2c(c1)[C@@]13CCCC[C@@]1(O)[C@@H](C2)N(CC1CCC1)CC3 show?
// result 458

// query Bench note: what Ratio Ki did Nc1ccc(Oc2ccc3c(c2)[C@@]24CCCC[C@@]2(O)[C@@H](C3)N(CC2CCC2)CC4)cc1 show?
// result 240

// query Bench note: what Ratio Ki did O=C(Oc1ccc2c(c1)[C@@]13CCCC[C@@]1(O)[C@@H](C2)N(CC1CCC1)CC3)c1ccc(-c2ccccc2)cc1 show?
// result 46

====

Assignment: determine reported pKi for the given compounds.
Lab note: report pKi as minus log10 of the concentration in molar units, number only.

// query Return pKi measured with UniProt P41145 given this compound: O=C(Cc1ccccc1)Oc1ccc2c(c1)[C@@]13CCCC[C@@]1(O)[C@@H](C2)N(CC1CCC1)CC3
Sequence (P41145 whole entry): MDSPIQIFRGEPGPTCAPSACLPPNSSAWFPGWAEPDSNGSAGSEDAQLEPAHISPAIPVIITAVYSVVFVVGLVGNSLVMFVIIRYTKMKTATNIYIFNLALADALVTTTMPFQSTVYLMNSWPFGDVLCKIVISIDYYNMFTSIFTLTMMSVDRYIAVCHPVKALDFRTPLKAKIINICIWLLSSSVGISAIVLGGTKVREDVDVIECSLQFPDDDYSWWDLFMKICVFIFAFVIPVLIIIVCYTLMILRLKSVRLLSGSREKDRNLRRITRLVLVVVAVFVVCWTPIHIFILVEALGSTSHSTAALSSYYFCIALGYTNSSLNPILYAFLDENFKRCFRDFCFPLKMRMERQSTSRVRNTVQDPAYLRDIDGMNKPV
// result 9.32

// query Return pKi measured with UniProt P41145 given this compound: Nc1ccc(Oc2ccc3c(c2)[C@@]24CCCC[C@@]2(O)[C@@H](C3)N(CC2CCC2)CC4)cc1
// result 8.28

// query Return pKi measured with UniProt P41145 given this compound: O[C@@]12CCCC[C@@]13CCN(CC1CCC1)[C@@H]2Cc1ccc(OCc2ccccc2)cc13
// result 7.55

// query Return pKi measured with UniProt P41145 given this compound: O[C@@]12CCCC[C@@]13CCN(CC1CCC1)[C@@H]2Cc1ccc(OCCc2ccccc2)cc13
// result 8.05

// query Return pKi measured with UniProt P41145 given this compound: O=C(Oc1ccc2c(c1)[C@@]13CCCC[C@@]1(O)[C@@H](C2)N(CC1CCC1)CC3)c1ccc(-c2ccccc2)cc1
// result 7.74

// query Return pKi measured with UniProt P41145 given this compound: Oc1ccc2c(c1)[C@@]13CCCC[C@@]1(O)[C@@H](C2)N(CC1CCC1)CC3 [BUTORPHANOL]
// result 9.92

====

Assignment: determine reported Ki for the given compounds.
Target: Delta-type opioid receptor (Homo sapiens)
Sequence (P41143 whole entry): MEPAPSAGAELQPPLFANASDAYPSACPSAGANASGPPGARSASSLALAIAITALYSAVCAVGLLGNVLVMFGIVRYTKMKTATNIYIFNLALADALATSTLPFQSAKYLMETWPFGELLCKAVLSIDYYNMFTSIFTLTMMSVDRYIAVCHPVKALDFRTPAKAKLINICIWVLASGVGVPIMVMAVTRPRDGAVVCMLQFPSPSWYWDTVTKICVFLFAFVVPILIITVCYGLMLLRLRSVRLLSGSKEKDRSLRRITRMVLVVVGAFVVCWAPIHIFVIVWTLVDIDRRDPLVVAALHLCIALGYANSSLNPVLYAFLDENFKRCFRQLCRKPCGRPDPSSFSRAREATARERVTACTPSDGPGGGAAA
Assay: Displacement of [3H]Naltindole from human delta opioid receptor expressed in CHO cell membrane
Dear colleague, please return just the value in µM, with no unit written.

// query Bench note: what Ki did O=[N+]([O-])c1ccc(Oc2ccc3c(c2)[C@@]24CCCC[C@@]2(O)[C@@H](C3)N(CC2CCC2)CC4)cc1 show?
// result 1.5

// query Bench note: what Ki did O=C(Cc1ccc(-c2ccccc2)cc1)Oc1ccc2c(c1)[C@@]13CCCC[C@@]1(O)[C@@H](C2)N(CC1CCC1)CC3 show?
// result 0.19

// query Bench note: what Ki did COc1ccc(CC(=O)Oc2ccc3c(c2)[C@@]24CCCC[C@@]2(O)[C@@H](C3)N(CC2CCC2)CC4)cc1 show?
// result 0.023

// query Bench note: what Ki did Nc1ccc(Oc2ccc3c(c2)[C@@]24CCCC[C@@]2(O)[C@@H](C3)N(CC2CCC2)CC4)cc1 show?
// result 0.93

// query Bench note: what Ki did C[C@H]1[C@H]2Cc3ccc(C(=O)N(C)CCc4ccc(-c5ccccc5)cc4)cc3[C@@]1(C)CCN2CC1CC1 show?
// result 0.012

// query Bench note: what Ki did Cc1ccc(C(C)C(=O)Oc2ccc3c(c2)[C@@]24CCCC[C@@]2(O)[C@@H](C3)N(CC2CCC2)CC4)cc1 (some centres not stated) show?
// result 0.096

// query Bench note: what Ki did O=C(Cc1ccccc1)Oc1ccc2c(c1)[C@@]13CCCC[C@@]1(O)[C@@H](C2)N(CC1CCC1)CC3 show?
// result 0.063
